Just for reference, paper PMC3953731 is where these values come from.

TEST TARGET: Ima1p (Saccharomyces cerevisiae)
MEASUREMENT NOTES: Kinetic parameters for selected substrates
Format: biochemical
CONDITION SUMMARY: mean ± SEM
ENDPOINT NAME: kcat

# COMPOUND, OBSERVED
measured = [
    ("OC[C@H]1O[C@H](OC[C@H]2O[C@H](OC[C@H]3OC(O)[C@H](O)[C@@H](O)[C@@H]3O)[C@H](O)[C@@H](O)[C@@H]2O)[C@H](O)[C@@H](O)[C@@H]1O (stereo partly drawn)", "21 ± 4 s⁻¹"),
    ("OC[C@H]1O[C@H](OC[C@H]2OC(O)(CO)[C@@H](O)[C@@H]2O)[C@H](O)[C@@H](O)[C@@H]1O (stereo partly drawn)", "78 ± 8 s⁻¹"),
    ("OC[C@H]1O[C@H](OC[C@H]2O[C@H](O[C@H]3[C@H](O)[C@@H](O)C(O)O[C@@H]3CO)[C@H](O)[C@@H](O)[C@@H]2O)[C@H](O)[C@@H](O)[C@@H]1O (stereo partly drawn)", "6.3 ± 0.5 s⁻¹"),
]

* * *

Each entry below lists one item and its recorded Specific activities value.
TEST TARGET: Ima5p (Saccharomyces cerevisiae, UniProt P40884)
Sequence (P40884 whole entry): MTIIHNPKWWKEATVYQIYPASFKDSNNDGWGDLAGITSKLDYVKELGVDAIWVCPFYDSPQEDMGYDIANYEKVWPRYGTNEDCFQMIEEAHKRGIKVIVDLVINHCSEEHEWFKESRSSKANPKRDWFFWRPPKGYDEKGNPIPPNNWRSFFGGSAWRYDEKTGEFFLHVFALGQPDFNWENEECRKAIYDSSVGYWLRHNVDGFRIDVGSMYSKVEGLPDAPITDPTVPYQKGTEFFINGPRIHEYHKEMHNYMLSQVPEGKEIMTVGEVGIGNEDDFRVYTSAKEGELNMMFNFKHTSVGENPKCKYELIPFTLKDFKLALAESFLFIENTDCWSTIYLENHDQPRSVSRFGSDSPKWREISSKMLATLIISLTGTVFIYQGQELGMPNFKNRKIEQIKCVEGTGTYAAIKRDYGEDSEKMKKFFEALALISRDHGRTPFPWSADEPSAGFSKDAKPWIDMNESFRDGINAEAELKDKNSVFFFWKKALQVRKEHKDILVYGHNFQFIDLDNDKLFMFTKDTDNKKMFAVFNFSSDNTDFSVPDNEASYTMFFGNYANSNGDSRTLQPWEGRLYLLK
MEASUREMENT NOTES: Substrate specificity of purified isomaltase
Format: biochemical
CONDITION SUMMARY: 100 mM substrate (pNPG 5 mM), citrate–potassium phosphate buffer, pH 7, 30 °C
ENDPOINT NAME: Specific activities (µmol/min/mg)

# COMPOUND, OBSERVED
rows = [
    ("OC[C@H]1O[C@H](O[C@@H]2[C@@H](O)[C@H](O)[C@@H](CO)O[C@@H]2O)[C@H](O)[C@@H](O)[C@@H]1O [Kojibiose, O-α-D-Glucosyl-(1→2)-α-D-glucose]", 2.5),
    ("O=[N+]([O-])c1ccc(O[C@@H]2O[C@H](CO)[C@@H](O)[C@H](O)[C@H]2O)cc1 [β-pNPG, 4-Nitrophenyl β-D-glucopyranoside]", 0),
    ("OC[C@H]1O[C@H](OC[C@H]2O[C@H](O)[C@H](O)[C@@H](O)[C@@H]2O)[C@H](O)[C@@H](O)[C@@H]1O [Isomaltose, O-α-D-Glucosyl-(1→6)-α-D-glucose]", 65),
    ("OC[C@H]1O[C@H](O[C@@H]2COC(O)(CO)[C@@H](O)[C@@H]2O)[C@H](O)[C@@H](O)[C@@H]1O (stereo partly drawn) [Leucrose, O-α-D-Glucosyl-(1→5)-D-fructose]", 1.1),
    ("OC[C@H]1O[C@H](O[C@H]2O[C@H](CO)[C@@H](O)[C@H](O)[C@H]2O)[C@H](O)[C@@H](O)[C@@H]1O [Trehalose, O-α-D-Glucosyl-(1→1)-α-D-glucose]", 0),
]

* * *

TEST TARGET: Ima1p (Saccharomyces cerevisiae, UniProt P53051)
Sequence (P53051 whole entry): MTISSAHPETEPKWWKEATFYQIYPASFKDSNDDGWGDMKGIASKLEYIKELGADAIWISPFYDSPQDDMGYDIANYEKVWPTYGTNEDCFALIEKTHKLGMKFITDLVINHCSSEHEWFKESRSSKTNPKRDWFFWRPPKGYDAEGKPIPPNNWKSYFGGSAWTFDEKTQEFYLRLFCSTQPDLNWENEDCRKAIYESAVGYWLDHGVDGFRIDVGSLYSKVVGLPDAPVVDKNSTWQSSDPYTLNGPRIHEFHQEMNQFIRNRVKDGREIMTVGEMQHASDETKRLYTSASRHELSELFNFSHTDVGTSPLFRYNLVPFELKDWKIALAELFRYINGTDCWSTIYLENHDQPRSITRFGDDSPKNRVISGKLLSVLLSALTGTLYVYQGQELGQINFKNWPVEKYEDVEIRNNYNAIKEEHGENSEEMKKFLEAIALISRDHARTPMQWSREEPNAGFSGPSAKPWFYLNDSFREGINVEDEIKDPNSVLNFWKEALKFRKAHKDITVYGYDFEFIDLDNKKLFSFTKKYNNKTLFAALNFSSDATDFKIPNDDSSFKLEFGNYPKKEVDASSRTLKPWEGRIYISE
MEASUREMENT NOTES: Substrate specificity of purified isomaltase
Assay type: biochemical
CONDITION SUMMARY: 100 mM substrate (pNPG 5 mM), pH 7, 30 °C
Use TRUE when the recorded relative activity, velocity on isomaltose set to 100 is no lower than 10%; use FALSE when it is lower.

# COMPOUND, TEST TARGET, CLASS ASSIGNMENT
rows = [
    ("OC[C@H]1O[C@H](OC[C@H]2OC(O)(CO)[C@@H](O)[C@@H]2O)[C@H](O)[C@@H](O)[C@@H]1O (stereo partly drawn) [Palatinose, O-α-D-Glucosyl-(1→6)-D-fructose]", "Ima1p (Saccharomyces cerevisiae, UniProt P53051)", "TRUE"),
    ("OC[C@H]1O[C@H](OC[C@H]2O[C@H](O[C@H]3[C@H](O)[C@@H](O)C(O)O[C@@H]3CO)[C@H](O)[C@@H](O)[C@@H]2O)[C@H](O)[C@@H](O)[C@@H]1O (stereo partly drawn) [Panose]", "Ima1p (Saccharomyces cerevisiae, UniProt P53051)", "FALSE"),
    ("OC[C@H]1O[C@H](O[C@@H]2[C@@H](O)[C@@H](O)O[C@H](CO)[C@H]2O)[C@H](O)[C@@H](O)[C@@H]1O [Nigerose, O-α-D-Glucosyl-(1→3)-α-D-glucose]", "Ima1p (Saccharomyces cerevisiae, UniProt P53051)", "TRUE"),
    ("COC1OC(CO)C(O)C(O)C1O (stereo not drawn) [α-MG, α-Methylglucopyranoside]", "Ima1p (Saccharomyces cerevisiae, UniProt P53051)", "TRUE"),
    ("OC[C@H]1O[C@H](O[C@H]2[C@H](O)[C@@H](O)[C@@H](O[C@H]3[C@H](O)[C@@H](O)C(O)O[C@@H]3CO)O[C@@H]2CO)[C@H](O)[C@@H](O)[C@@H]1O (stereo partly drawn) [Maltotriose]", "Ima1p (Saccharomyces cerevisiae, UniProt P53051)", "FALSE"),
]
